- TEST: In vivo pharmacokinetic study, rat IV
- Set-up: species or system Male Sprague Dawley rats
- CONDITION NOTES: male, Sprague Dawley, plasma; rat IV bolus, cassette, nominal 0.5 mg/kg, 0.167 hours
METRIC NAME: concentration at 0.167 h (ng/mL)

* [2H]C([2H])([2H])c1cc(F)ccc1Oc1cc(C(F)(F)F)ccc1C(=O)Nc1cc[nH]c(=O)c1 | 399
* Cc1cc(F)ccc1Oc1cc(C(F)(F)F)ccc1C(=O)Nc1cc[nH]c(=O)c1 [Compound 10, reference compound] | 349

----------
- TEST: In vivo pharmacokinetic study, rat IV
- Design: species or system Male Sprague Dawley rats
- CONDITION NOTES: male, Sprague Dawley, plasma; rat IV bolus, cassette, nominal 0.5 mg/kg, noncompartmental analysis
METRIC NAME: AUC(0-inf) (ng·h/mL)

A: [2H]C([2H])([2H])c1cc(F)ccc1Oc1cc(C(F)(F)F)ccc1C(=O)Nc1cc[nH]c(=O)c1
B: Cc1cc(F)ccc1Oc1cc(C(F)(F)F)ccc1C(=O)Nc1cc[nH]c(=O)c1 [Compound 10, reference compound]
Return label of the item with the larger AUC(0-inf). Candidates: A , B . // return label of chosen record
A
(A: 961 ng·h/mL, B: 422 ng·h/mL)

----------
- TEST: In vivo pharmacokinetic study, rat IV
- Set-up: species or system Male Sprague Dawley rats
- CONDITION NOTES: male, Sprague Dawley, plasma; rat IV bolus, cassette, nominal 0.5 mg/kg, 0.25 hours
METRIC NAME: concentration at 0.25 h (ng/mL)

* Cc1cc(F)ccc1Oc1cc(C(F)(F)F)ccc1C(=O)Nc1cc[nH]c(=O)c1 [Compound 10, reference compound] | 316
* [2H]C([2H])([2H])c1cc(F)ccc1Oc1cc(C(F)(F)F)ccc1C(=O)Nc1cc[nH]c(=O)c1 | 371

----------
- TEST: In vivo pharmacokinetic study, rat IV
- Design: species or system Male Sprague Dawley rats
- CONDITION NOTES: male, Sprague Dawley, plasma; rat IV bolus, cassette, nominal 0.5 mg/kg, noncompartmental analysis
METRIC NAME: C0 (ng/mL)

* Cc1cc(F)ccc1Oc1cc(C(F)(F)F)ccc1C(=O)Nc1cc[nH]c(=O)c1 [Compound 10, reference compound] | 245
* [2H]C([2H])([2H])c1cc(F)ccc1Oc1cc(C(F)(F)F)ccc1C(=O)Nc1cc[nH]c(=O)c1 | 211

----------
- TEST: In vivo pharmacokinetic study, rat IV
- Set-up: species or system Male Sprague Dawley rats
- CONDITION NOTES: male, Sprague Dawley, plasma; rat IV bolus, cassette, nominal 0.5 mg/kg, 1 hour
METRIC NAME: concentration at 1 h (ng/mL)

I: [2H]C([2H])([2H])c1cc(F)ccc1Oc1cc(C(F)(F)F)ccc1C(=O)Nc1cc[nH]c(=O)c1
II: Cc1cc(F)ccc1Oc1cc(C(F)(F)F)ccc1C(=O)Nc1cc[nH]c(=O)c1 [Compound 10, reference compound]
Given I and II , report the one with the higher recorded concentration at 1 h. Select an item and report its label.
I
(I: 256 ng/mL, II: 174 ng/mL)

----------
- TEST: In vivo pharmacokinetic study, rat IV
- Design: species or system Male Sprague Dawley rats
- CONDITION NOTES: male, Sprague Dawley, plasma; rat IV bolus, cassette, nominal 0.5 mg/kg, noncompartmental analysis
- Method: General Procedures. Concentrations of the test compounds in plasma were determined using a high performance liquid chromatography/tandem mass spectrometry (HPLC/MS/MS) method. […] The analytes were detected by MS/MS with Electrospray Ionization (ESI) in the mode of multiple reaction monitoring (MRM). The lower limit of quantitation (LLOQ) was 1.00 ng/mL. […]
METRIC NAME: clearance (mL/min/kg)

1: Cc1cc(F)ccc1Oc1cc(C(F)(F)F)ccc1C(=O)Nc1cc[nH]c(=O)c1 [Compound 10, reference compound]
2: [2H]C([2H])([2H])c1cc(F)ccc1Oc1cc(C(F)(F)F)ccc1C(=O)Nc1cc[nH]c(=O)c1
# return whichever of 1 and 2 has the smaller clearance Give the chosen item's label as your response.
2
(2: 8.07 mL/min/kg, 1: 22.1 mL/min/kg)
